# key: entry, value: inhibition at 1 µM
target: Aurora-A kinase (Homo sapiens); construct: purchased Millipore (KinaseProfiler service) and/or Reaction Biology Corp. (Kinase HotSpot service); assay: Aurora-A kinase assay (KinaseProfiler / Kinase HotSpot); type: biochemical; settings: compound at 1 μM; read-out: % Inhibition @1 μM Auroro-A
Sequence (O14965 whole entry): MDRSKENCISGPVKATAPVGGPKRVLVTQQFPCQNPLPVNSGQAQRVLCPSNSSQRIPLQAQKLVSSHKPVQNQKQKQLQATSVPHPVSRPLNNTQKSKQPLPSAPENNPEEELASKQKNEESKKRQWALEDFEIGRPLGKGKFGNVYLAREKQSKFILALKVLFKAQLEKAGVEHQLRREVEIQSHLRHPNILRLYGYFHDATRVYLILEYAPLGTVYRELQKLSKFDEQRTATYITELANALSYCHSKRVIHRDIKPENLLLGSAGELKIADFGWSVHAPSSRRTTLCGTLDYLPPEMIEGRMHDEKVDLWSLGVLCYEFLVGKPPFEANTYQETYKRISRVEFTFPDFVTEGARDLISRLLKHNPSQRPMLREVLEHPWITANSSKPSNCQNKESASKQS

[[record]]
mol_smiles = "Cc1cnc(Nc2nc(Sc3ccc(N)cc3)nc(N3CCN(C)CC3)n2)s1"
result = "50 to 90%"

[[record]]
mol_smiles = "CCNC(=O)Nc1ccc(Nc2nc(CC)nc(Nc3cc(C)n(C(=O)NCC)n3)n2)cc1"
result = "< 50%"

[[record]]
mol_smiles = "CCc1nc(Nc2ccc(NC(=O)Nc3ccccc3C)cc2)nc(Nc2cc(C)[nH]n2)n1"
result = "> 90%"


Moving on to the next molecule.
**Query** Would you kindly share the measured inhibition at 1 µM for `CCc1nc(Nc2ccc(NC(=O)NC(C)C)cc2)nc(Nc2cc(C)n(C(=O)NC(C)C)n2)n1` ?
**Result** 50 to 90%
